Reported inhibition by item:
- Target or system: Protein Mdm4 (Homo sapiens) + E3 ubiquitin-protein ligase Mdm2 (Homo sapiens) (UniProt O15151+Q00987)
- Sequence (O15151 whole entry, looked up): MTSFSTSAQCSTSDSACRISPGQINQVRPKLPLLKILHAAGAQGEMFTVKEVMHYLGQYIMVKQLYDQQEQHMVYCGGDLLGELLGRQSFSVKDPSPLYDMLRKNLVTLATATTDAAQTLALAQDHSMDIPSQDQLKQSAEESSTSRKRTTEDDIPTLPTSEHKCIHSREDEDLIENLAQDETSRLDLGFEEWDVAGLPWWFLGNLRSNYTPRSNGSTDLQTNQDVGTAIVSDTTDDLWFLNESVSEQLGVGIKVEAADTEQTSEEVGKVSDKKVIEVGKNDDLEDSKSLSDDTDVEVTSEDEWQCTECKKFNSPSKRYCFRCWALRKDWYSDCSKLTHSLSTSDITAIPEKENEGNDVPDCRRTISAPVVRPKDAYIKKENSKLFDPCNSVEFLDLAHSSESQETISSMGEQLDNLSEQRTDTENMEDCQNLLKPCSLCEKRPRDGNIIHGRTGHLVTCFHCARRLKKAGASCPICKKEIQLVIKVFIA
- Sequence (Q00987 whole entry, looked up): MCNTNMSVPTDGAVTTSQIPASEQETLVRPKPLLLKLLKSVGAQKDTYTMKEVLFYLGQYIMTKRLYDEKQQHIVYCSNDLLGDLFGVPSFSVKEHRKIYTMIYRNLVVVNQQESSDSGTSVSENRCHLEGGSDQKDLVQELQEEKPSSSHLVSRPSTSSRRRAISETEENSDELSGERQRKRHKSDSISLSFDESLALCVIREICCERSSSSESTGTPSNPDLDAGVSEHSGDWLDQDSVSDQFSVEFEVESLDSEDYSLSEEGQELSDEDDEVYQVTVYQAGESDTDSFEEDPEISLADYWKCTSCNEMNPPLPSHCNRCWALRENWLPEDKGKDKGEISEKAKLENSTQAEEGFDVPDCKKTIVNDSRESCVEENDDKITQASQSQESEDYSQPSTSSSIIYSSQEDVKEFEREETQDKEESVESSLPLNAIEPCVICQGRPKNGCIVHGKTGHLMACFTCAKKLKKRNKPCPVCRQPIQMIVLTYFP
- Test summary: Mdm2-MdmX complex disruptors, retested hits, confirmation, luminescence, single concentration (AID 489028)
- Experimental parameters: Mdm2-MdmX binding, luminescent assay; at 8 µM; stronger effect = higher value
Out of some 10,000 compounds screened, about 5,600 (56%) were called active. So high a share suggests a set chosen from earlier hits. These entries were drawn from the full list.
Write down the numeric answer in % and omit the unit.

The cases that follow already have their inhibition on record.
1. CN1CCN(C2Cc3ccc(Cl)cc3Sc3ccc(F)cc32)CC1 (stereo not given)    27.8
2. O=C(Nc1ccc(-c2csc(Nc3cccc(C(F)(F)F)c3)n2)cc1)c1cccc(C(F)(F)F)c1    -10.4
3. CCCCCCCCCCOC(=O)Cn1c(COc2cccc(OC)c2)[n+](C)c2ccccc21    53
4. CCC(c1nnnn1C1CCCC1)N(Cc1cccs1)Cc1cc2cccc(C)c2[nH]c1=O (stereo not given)    13.8

Look at this compound and give its reported inhibition. `Cc1cccc([C@@H]2[C@@H]3C(=O)N(Cc4ccccc4)C(=O)[C@@H]3[C@]3(C)C(=O)N(c4ccc(Br)cc4)C(=O)N23)c1`
24.9

Quick one: inhibition for `COc1ccc(-c2n[nH]c(C)c2-c2ccc(OC)c(OC)c2)c(O)c1` ?
50.9

Give its inhibition value. Item: `COc1ccccc1N1CCN(C(=O)c2cc(=O)c3cc(C)cc(C)c3o2)CC1`
66.8

Which measured inhibition value corresponds to `FC(F)(F)c1nnc2c3ccccc3c(Cl)nn12` ?
47

Recorded inhibition of `CCNS(=O)(=O)c1ccc(NC(=O)Nc2cccc(C(F)(F)F)c2)cc1` , please.
42.4

Fill blank: measured inhibition of the compound `O=C(Nc1ccc2ccccc2c1)Nc1ccc2snnc2c1` is ____.
47.5

###

- Target or system: Protein Mdm4 (Homo sapiens) + E3 ubiquitin-protein ligase Mdm2 (Homo sapiens) (UniProt O15151+Q00987)
- Test summary: Mdm2-MdmX complex disruptors, retested hits, confirmation, luminescence, single concentration (AID 489028)
- Experimental parameters: Mdm2-MdmX binding, luminescent assay; at 8 µM; stronger effect = higher value
In all, about 10,000 compounds went through this assay and about 5,600 (56%) were called active. So high a share suggests a set chosen from earlier hits. Only a sample is shown.
Decision: inhibition compared against 50%; not below it gives yes, below it gives no.

1. C=CCN(CC=C)S(=O)(=O)c1ccc(C(=O)Nc2nc3c(s2)CCc2ccccc2-3)cc1    no
2. Cc1ccc(C(=O)Nc2sc(Cc3ccc4c(c3)OCO4)c(C)c2C(N)=O)cc1    no
3. Oc1c(CN2CCCC2)cc(COCc2ccccc2)c2cccnc12    yes
4. O=C(Cn1nnc(-c2ccccc2)n1)N/N=C/c1ccc(-c2ccc(Cl)cc2)o1    yes

Does the reported inhibition for `CC(=O)Oc1c(C(=O)c2nnc(C)o2)c(=O)n(Cc2ccccc2)c2ccccc12` fall at or above the 50% mark?
yes

Dear colleague, could you confirm whether CC(=O)Nc1ccc(NC(=O)C2CCCN(S(=O)(=O)c3ccc(Cl)cc3)C2)cc1 (configuration not stated) has inhibition at or above 50%?
no

Item CCC1CCCCN1CCCNC(=O)c1cc2c(Cl)nc3ccccc3c2s1 (configuration not stated) with inhibition of 50% or above?
no
